Biological target: recombinant human survivin (human, UniProt O15392)
Sequence (O15392 whole entry): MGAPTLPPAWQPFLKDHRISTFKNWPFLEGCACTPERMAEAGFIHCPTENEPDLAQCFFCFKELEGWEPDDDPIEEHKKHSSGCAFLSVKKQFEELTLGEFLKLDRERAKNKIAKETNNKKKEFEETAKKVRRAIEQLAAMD
Assay: quartz crystal microbalance
pKd: −log10 of the molar value. No end group written: not given here.
Some binders, each annotated with its measured pKd.
endpoint: pKd

>>> reported_value("DQKLMEF (HELM PEPTIDE1{[O=C1OC2(c3ccc(O)cc3Oc3cc(O)ccc32)c2ccc(NC(=S)[*:2])cc21].[O=C(CCCCCN[*:1])[*:2]].D.Q.K.L.M.E.F.[am]}$$$$V2.0; SMILES CSCC[C@H](NC(=O)[C@H](CC(C)C)NC(=O)[C@H](CCCCN)NC(=O)[C@H](CCC(N)=O)NC(=O)[C@H](CC(=O)O)NC(=O)CCCCCNC(=S)Nc1ccc2c(c1)C(=O)OC21c2ccc(O)cc2Oc2cc(O)ccc21)C(=O)N[C@@H](CCC(=O)O)C(=O)N[C@@H](Cc1ccccc1)C(N)=O) [FITC-INC_(16-22)]")
7.18
>>> reported_value("CDQKLMEF-NH2 [INC_(15-22)]")
6.61
>>> reported_value("DQKLMEFLCNMDNKDLVWL-NH2 [INC_(16-34)]")
6.80

The reported numbers originate from paper PMC7156834.
